target of assay: T1, interleukin 18 binding protein (IL-18BP) (UniProt O95998 31-194)
T1 sequence (looked up): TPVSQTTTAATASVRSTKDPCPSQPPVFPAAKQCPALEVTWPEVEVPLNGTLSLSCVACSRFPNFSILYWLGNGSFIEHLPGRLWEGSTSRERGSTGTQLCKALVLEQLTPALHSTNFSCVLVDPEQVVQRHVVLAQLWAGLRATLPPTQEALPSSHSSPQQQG
method: cell-based or functional assay
Provide the recorded Ratio for the entries that follow.

Asked: Report Ratio, nothing else, for this binder: IL-18 variant K53S, S55K (ligand) YFGKLESKLSVIRNLNDQVLFIDQGNRPLFEDMTDSDMRDNAPRTIFIISMYSDKQPRGMAVTISVKSEKISTLSSENKIISFKEMNPPDNIKDTKSDIIFFQRSVPGHDNKMQFESSSYEGYFLASEKERDLFKLILKKEDELGDRSIMFTVQNED
Given back: 0.8

Asked: Report Ratio, nothing else, for this binder: IL-18 variant K53H, S55V (ligand) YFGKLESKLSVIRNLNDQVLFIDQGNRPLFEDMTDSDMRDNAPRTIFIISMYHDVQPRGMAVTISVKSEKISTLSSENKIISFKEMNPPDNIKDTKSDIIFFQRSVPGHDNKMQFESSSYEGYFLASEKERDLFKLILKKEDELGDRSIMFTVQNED
Given back: 10.1

Asked: Report Ratio, nothing else, for this binder: IL-18 variant K53T, S55A (ligand) YFGKLESKLSVIRNLNDQVLFIDQGNRPLFEDMTDSDMRDNAPRTIFIISMYTDAQPRGMAVTISVKSEKISTLSSENKIISFKEMNPPDNIKDTKSDIIFFQRSVPGHDNKMQFESSSYEGYFLASEKERDLFKLILKKEDELGDRSIMFTVQNED
Given back: 2.1
